Numbers sourced from patent US12419877B2.

testMethodNotes: Solubility experiments (approximate solubility by solvent aliquot addition)
Format: physicochemical
experimentalParameters: aqueous with cosolvent or surfactant or cyclodextrin, thermodynamic from solid; Solvent: MeOH/Water (50%); RT (ca. 22° C.); read-out: Solubility (mg/mL) RT (ca. 22° C.)
reportedProperty: solubility

# input Given the compound O=C(O)CNC(=O)c1ncc(-c2cccc(Cl)c2)cc1O [Form A of Compound (I)] , what is its reported solubility?
# output < 10 mg/mL

###

testMethodNotes: Solubility experiments (approximate solubility by solvent aliquot addition)
Assay type: physicochemical
experimentalParameters: organic solvent or mixture, thermodynamic from solid; Solvent: Diisopropyl ether (DIPE); ca. 50° C.; read-out: Solubility (mg/mL) (ca. 50° C.)
reportedProperty: solubility

# input Given the compound O=C(O)CNC(=O)c1ncc(-c2cccc(Cl)c2)cc1O [Form A of Compound (I)] , what is its reported solubility?
# output < 10 mg/mL

###

testMethodNotes: Solubility experiments (approximate solubility by solvent aliquot addition)
Type: physicochemical
experimentalParameters: organic solvent or mixture, thermodynamic from solid; Solvent: 2-Methoxyethanol; ca. 50° C.; read-out: Solubility (mg/mL) (ca. 50° C.)
reportedProperty: solubility

# input Given the compound O=C(O)CNC(=O)c1ncc(-c2cccc(Cl)c2)cc1O [Form A of Compound (I)] , what is its reported solubility?
# output > 200 mg/mL

###

testMethodNotes: Solubility experiments (approximate solubility by solvent aliquot addition)
Type: physicochemical
experimentalParameters: organic solvent or mixture, thermodynamic from solid; Solvent: Ethanol (EtOH); ca. 50° C.; read-out: Solubility (mg/mL) (ca. 50° C.)
reportedProperty: solubility

# input Given the compound O=C(O)CNC(=O)c1ncc(-c2cccc(Cl)c2)cc1O [Form A of Compound (I)] , what is its reported solubility?
# output > 34 mg/mL

###

testMethodNotes: Solubility experiments (approximate solubility by solvent aliquot addition)
Format: physicochemical
experimentalParameters: organic solvent or mixture, thermodynamic from solid; Solvent: Cumene; ca. 50° C.; read-out: Solubility (mg/mL) (ca. 50° C.)
reportedProperty: solubility

# input Given the compound O=C(O)CNC(=O)c1ncc(-c2cccc(Cl)c2)cc1O [Form A of Compound (I)] , what is its reported solubility?
# output < 10 mg/mL

###

testMethodNotes: Solubility experiments (approximate solubility by solvent aliquot addition)
Format: physicochemical
experimentalParameters: organic solvent or mixture, thermodynamic from solid; Solvent: Cyclohexane; ca. 50° C.; read-out: Solubility (mg/mL) (ca. 50° C.)
reportedProperty: solubility

# input Given the compound O=C(O)CNC(=O)c1ncc(-c2cccc(Cl)c2)cc1O [Form A of Compound (I)] , what is its reported solubility?
# output < 10 mg/mL

###

testMethodNotes: Solubility experiments (approximate solubility by solvent aliquot addition)
Format: physicochemical
experimentalParameters: organic solvent or mixture, thermodynamic from solid; Solvent: Dimethylacetamide (DMA); ca. 50° C.; read-out: Solubility (mg/mL) (ca. 50° C.)
reportedProperty: solubility

# input Given the molecule O=C(O)CNC(=O)c1ncc(-c2cccc(Cl)c2)cc1O [Form A of Compound (I)] , what is its reported solubility?
# output > 200 mg/mL

###

testMethodNotes: Solubility experiments (approximate solubility by solvent aliquot addition)
Type: physicochemical
experimentalParameters: organic solvent or mixture, thermodynamic from solid; Solvent: Benzonitrile; ca. 50° C.; read-out: Solubility (mg/mL) (ca. 50° C.)
reportedProperty: solubility

# input Given the compound O=C(O)CNC(=O)c1ncc(-c2cccc(Cl)c2)cc1O [Form A of Compound (I)] , what is its reported solubility?
# output < 10 mg/mL

###

testMethodNotes: Solubility experiments (approximate solubility by solvent aliquot addition)
Format: physicochemical
experimentalParameters: organic solvent or mixture, thermodynamic from solid; Solvent: Ethyl acetate (EtOAc); RT (ca. 22° C.); read-out: Solubility (mg/mL) RT (ca. 22° C.)
reportedProperty: solubility

# input Given the compound O=C(O)CNC(=O)c1ncc(-c2cccc(Cl)c2)cc1O [Form A of Compound (I)] , what is its reported solubility?
# output < 41 mg/mL

###

testMethodNotes: Solubility experiments (approximate solubility by solvent aliquot addition)
Format: physicochemical
experimentalParameters: organic solvent or mixture, thermodynamic from solid; Solvent: EtOAc/Toluene (1:2); ca. 50° C.; read-out: Solubility (mg/mL) (ca. 50° C.)
reportedProperty: solubility (mg/mL)
Answers are plain numbers, in mg/mL.

# input Given the compound O=C(O)CNC(=O)c1ncc(-c2cccc(Cl)c2)cc1O [Form A of Compound (I)] , what is its reported solubility?
# output 14

###

testMethodNotes: Solubility experiments (approximate solubility by solvent aliquot addition)
Assay type: physicochemical
experimentalParameters: organic solvent or mixture, thermodynamic from solid; Solvent: Dimethylacetamide (DMA); RT (ca. 22° C.); read-out: Solubility (mg/mL) RT (ca. 22° C.)
reportedProperty: solubility

# input Given the molecule O=C(O)CNC(=O)c1ncc(-c2cccc(Cl)c2)cc1O [Form A of Compound (I)] , what is its reported solubility?
# output > 200 mg/mL

###

testMethodNotes: Solubility experiments (approximate solubility by solvent aliquot addition)
Type: physicochemical
experimentalParameters: organic solvent or mixture, thermodynamic from solid; Solvent: Cyclohexanone; ca. 50° C.; read-out: Solubility (mg/mL) (ca. 50° C.)
reportedProperty: solubility (mg/mL)
Answers are plain numbers, in mg/mL.

# input Given the molecule O=C(O)CNC(=O)c1ncc(-c2cccc(Cl)c2)cc1O [Form A of Compound (I)] , what is its reported solubility?
# output 200

###

testMethodNotes: Solubility experiments (approximate solubility by solvent aliquot addition)
Assay type: physicochemical
experimentalParameters: organic solvent or mixture, thermodynamic from solid; Solvent: 1-Propanol (1-PrOH); ca. 50° C.; read-out: Solubility (mg/mL) (ca. 50° C.)
reportedProperty: solubility (mg/mL)
Give bare numbers, in mg/mL.

# input Given the molecule O=C(O)CNC(=O)c1ncc(-c2cccc(Cl)c2)cc1O [Form A of Compound (I)] , what is its reported solubility?
# output 20

###

testMethodNotes: Solubility experiments (approximate solubility by solvent aliquot addition)
Type: physicochemical
experimentalParameters: ethyl acetate/cyclohexane (1:2), organic solvent or mixture, thermodynamic from solid; Solvent: EtOAc/Cyclohexane (1:2); RT (ca. 22° C.); read-out: Solubility (mg/mL) RT (ca. 22° C.)
Procedure: Approximately 20 mg of Form A of Compound (1) was placed in each of 48 vials and 5 volume aliquots of the appropriate solvent systems were added to the appropriate vial. Between each addition, the mixture was checked for dissolution and if no dissolution was apparent, the mixture was warmed to ca. 50° C. and checked again. This procedure was continued until dissolution was observed or until 100 volumes of solvent had been added.
reportedProperty: solubility

# input Given the compound O=C(O)CNC(=O)c1ncc(-c2cccc(Cl)c2)cc1O [Form A of Compound (I)] , what is its reported solubility?
# output < 10 mg/mL

###

testMethodNotes: Solubility experiments (approximate solubility by solvent aliquot addition)
Type: physicochemical
experimentalParameters: organic solvent or mixture, thermodynamic from solid; Solvent: Dimethylformamide (DMF); ca. 50° C.; read-out: Solubility (mg/mL) (ca. 50° C.)
reportedProperty: solubility

# input Given the compound O=C(O)CNC(=O)c1ncc(-c2cccc(Cl)c2)cc1O [Form A of Compound (I)] , what is its reported solubility?
# output > 200 mg/mL

###

testMethodNotes: Solubility experiments (approximate solubility by solvent aliquot addition)
Type: physicochemical
experimentalParameters: organic solvent or mixture, thermodynamic from solid; Solvent: Diethyl ether; ca. 50° C.; read-out: Solubility (mg/mL) (ca. 50° C.)
reportedProperty: solubility (mg/mL)
Answers are plain numbers, in mg/mL.

# input Given the compound O=C(O)CNC(=O)c1ncc(-c2cccc(Cl)c2)cc1O [Form A of Compound (I)] , what is its reported solubility?
# output 10

###

testMethodNotes: Solubility experiments (approximate solubility by solvent aliquot addition)
Type: physicochemical
experimentalParameters: organic solvent or mixture, thermodynamic from solid; Solvent: Nitromethane; RT (ca. 22° C.); read-out: Solubility (mg/mL) RT (ca. 22° C.)
reportedProperty: solubility

# input Given the molecule O=C(O)CNC(=O)c1ncc(-c2cccc(Cl)c2)cc1O [Form A of Compound (I)] , what is its reported solubility?
# output < 10 mg/mL

###

testMethodNotes: Solubility experiments (approximate solubility by solvent aliquot addition)
Type: physicochemical
experimentalParameters: organic solvent or mixture, thermodynamic from solid; Solvent: Isobutyl acetate (iBuOAc); ca. 50° C.; read-out: Solubility (mg/mL) (ca. 50° C.)
reportedProperty: solubility (mg/mL)
Numbers only, in mg/mL.

# input Given the compound O=C(O)CNC(=O)c1ncc(-c2cccc(Cl)c2)cc1O [Form A of Compound (I)] , what is its reported solubility?
# output 20

###

testMethodNotes: Solubility experiments (approximate solubility by solvent aliquot addition)
Assay type: physicochemical
experimentalParameters: organic solvent or mixture, thermodynamic from solid; Solvent: 2-Propanol (IPA); RT (ca. 22° C.); read-out: Solubility (mg/mL) RT (ca. 22° C.)
reportedProperty: solubility

# input Given the compound O=C(O)CNC(=O)c1ncc(-c2cccc(Cl)c2)cc1O [Form A of Compound (I)] , what is its reported solubility?
# output < 13 mg/mL
